Values were extracted from PubChem BioAssay (NCI).

So I've got a bunch of compounds here, and I need their TGI values.
Test system: MOLT-4 leukemia
Experiment: NCI tumour cell line growth inhibition, 48 h

COc1c(C)n(CCO)ccc1=O	> 100 µM
C=CCNC(=S)N=Nc1c(O)[nH]c2ccc([N+](=O)[O-])cc12	> 100 µM
CCOC(=O)NC(=O)c1cn(C2CCCCC2)c(=O)[nH]c1=O	> 100 µM

Batch request: TGI per item, same order as input.
1. CN(Cc1ccccc1)c1cc(=O)n(C)c(=O)[nH]1
2. Cc1ccc(CC[P+](=O)CCc2ccc(C)nc2)cn1
3. CC(=O)c1cccn1/C=C(\OC(=O)OC(C)(C)C)c1ccc[nH]1
4. O=C(Nc1cc(Cl)ccc1O)c1ccc(Nc2ccnc(C(F)(F)F)c2)cc1
5. Nc1nc(-c2ccc(Cl)c([N+](=O)[O-])c2)cs1
6. Cc1cc(-c2nc3ccccc3s2)ccc1NC(=O)[C@@H](N)CCCCN

1: > 100 µM; 2: > 100 µM; 3: > 100 µM; 4: 6.6 µM; 5: > 100 µM; 6: 17.1 µM

Batch request: TGI per item, same order as input.
1. Cn1c(=O)nc2n(-c3cc(C(F)(F)F)cc(C(F)(F)F)c3)c3ccccc3nc-2c1=O
2. NNC1=N/C(=C\c2ccco2)C(Cl)=N1

["> 100 µM", "34.9 µM"]
